Assay: Quantitative High-Throughput drug screen in 47 multiple myeloma cell lines against the NCATS MIPE library collection: Karpas25_ECACC cell viability assay (AID 1918968; note: nearly all actives have a fitted effect of over 35% in size)
Conditions: Karpas25 myeloma viability, CellTiter-Glo ATP, 48 h; series mostly up to 45.8 µM
Results filed as inconclusive are left out. Calls of active or inactive are those of the source. Calls come from the whole dose curve; as a rule, active = well fitted cell-killing curve with a large enough effect; inconclusive = small, poorly fitted or top-dose-only effect, or effect the other way; inactive = no such curve, though single readings can be large or run the other way.
The reply should be one of these categories: active, inactive

Please review the entries below; each comes with its answer.
[[record]]
compound = "CN(C)CCc1c[nH]c2ccc(C[C@H]3COC(=O)N3)cc12"
assigned_label = "inactive"

[[record]]
compound = "Cc1noc(NS(=O)(=O)c2ccc(N)cc2)c1C"
assigned_label = "inactive"

[[record]]
compound = "NC(N)=NC(N)=NCCc1ccccc1"
assigned_label = "active"

[[record]]
compound = "CCN(C)C(=O)Oc1cccc([C@H](C)N(C)C)c1"
assigned_label = "inactive"

[[record]]
compound = "Cc1onc(-c2ccccc2Cl)c1C(=O)N[C@@H]1C(=O)N2[C@@H]1SC(C)(C)[C@@H]2C(=O)O"
assigned_label = "inactive"


Input: Please let me know the test result on file for COc1cc(NCc2ccc3nc(N)nc(N)c3c2C)cc(OC)c1OC .
Output: active

Input: Please let me know the test result on file for CCCc1nc(C)c2c(=O)[nH]c(-c3cc(S(=O)(=O)N4CCN(CC)CC4)ccc3OCC)nn12 .
Output: active

Input: Please let me know the test result on file for CCn1cc(C(=O)O)c(=O)c2cc(F)c(N3CCNCC3)cc21 .
Output: inactive

---

Assay: Quantitative High-Throughput drug screen in 47 multiple myeloma cell lines against the NCATS MIPE library collection: INA6_PLB cell viability assay (AID 1918965; note: nearly all actives have a fitted effect of over 55% in size)
Conditions: INA6 myeloma viability, CellTiter-Glo ATP luminescence, 48 h; series mostly up to 45.8 µM
Records with an inconclusive call do not appear. Calls of active or inactive are those of the source. Calls follow the shape of the dose curve; as a rule, active = well fitted cell-killing curve with a large enough effect; inconclusive = small, poorly fitted or top-dose-only effect, or effect the other way; inactive = no such curve, though single readings can be large or run the other way.
The reply should be one of these categories: active, inactive

Please review the entries below; each comes with its answer.
[[record]]
molecule = "CCOC(=O)[C@H](CCc1ccccc1)N[C@H]1CCc2ccccc2N(CC(=O)O)C1=O"
assigned_label = "active"

[[record]]
molecule = "COc1ccc(-c2ccc3cc(C(=O)O)ccc3c2)cc1C12CC3CC(CC(C3)C1)C2"
assigned_label = "inactive"

[[record]]
molecule = "COC(=O)Nc1nc2ccc(C(=O)c3ccccc3)cc2[nH]1"
assigned_label = "active"

[[record]]
molecule = "CNS(=O)(=O)CCc1ccc2[nH]cc(C3CCN(C)CC3)c2c1"
assigned_label = "active"

[[record]]
molecule = "CCN[C@H]1C[C@H](C)S(=O)(=O)c2sc(S(N)(=O)=O)cc21"
assigned_label = "inactive"

[[record]]
molecule = "COc1cc(NS(=O)(=O)c2ccc(N)cc2)nc(OC)n1"
assigned_label = "inactive"


From here, focus on the item given below.
Input: Please let me know the test result on file for CC(N)C12CC3CC(CC(C3)C1)C2 (configuration not stated) .
Output: inactive

---

Assay: Quantitative High-Throughput drug screen in 47 multiple myeloma cell lines against the NCATS MIPE library collection: Karpas417_ECACC cell viability assay (AID 1918961)
Conditions: Karpas417 myeloma viability, CellTiter-Glo ATP luminescence, 48 h
Excerpt: PI: Beverly A. Mock Ph.D. Laboratory of Cancer Biology and Genetics, Center for Cancer Research, National Cancer Institute, National Institute of Health, Bethesda, Maryland […] 5; Detector; 425V; Luminescence; Viewlux PerkinElmer. […] 1. […] Briefly, the corresponding myeloma cell lines were screened in 1,536-well plates with 500 cells, 5-uL per well for inhibition of cell viability (assessed by measuring ATP levels with CellTiterGlo). […]
Inconclusive results are not listed. Active and inactive are the calls of the source. Calls come from the whole dose curve; as a rule, active = well fitted cell-killing curve with a large enough effect; inconclusive = small, poorly fitted or top-dose-only effect, or effect the other way; inactive = no such curve, though single readings can be large or run the other way.
The reply should be one of these categories: label 1 = active, label 0 = inactive

Please review the entries below; each comes with its answer.
[[record]]
compound = "NCCCC(O)(P(=O)(O)O)P(=O)(O)O"
assigned_label = "label 0"

[[record]]
compound = "CC(=O)Oc1ccccc1C(=O)Nc1ncc([N+](=O)[O-])s1"
assigned_label = "label 1"


Input: Please let me know the test result on file for NC(=O)c1ccc2[nH]ccc2c1 .
Output: label 0

Input: Please let me know the test result on file for Nc1nc(N)nc(-c2cc(Cl)ccc2Cl)n1 .
Output: label 0

Input: Please let me know the test result on file for CC(C(=O)O)c1ccc2c(c1)CC(=O)c1ccccc1S2 (configuration not stated) .
Output: label 1

Input: Please let me know the test result on file for CCOC(=O)[C@H](CCc1ccccc1)N[C@H]1CS[C@H](c2cccs2)CN(CC(=O)O)C1=O .
Output: label 1

Input: Please let me know the test result on file for CCC(C)(C)c1ccc(CC(C)CN2C[C@@H](C)O[C@@H](C)C2)cc1 (some centres not stated) .
Output: label 0

Input: Please let me know the test result on file for CC(C)NCC(O)c1ccc(NS(C)(=O)=O)cc1 (configuration not stated) .
Output: label 0

Input: Please let me know the test result on file for CCn1cc(C(=O)O)c(=O)c2cc(F)c(N3CCN(C)CC3)cc21 .
Output: label 0

Input: Please let me know the test result on file for NC(=O)c1cccnc1 .
Output: label 0

Input: Please let me know the test result on file for O=c1cc(O)c(Cl)c[nH]1 .
Output: label 1

Input: Please let me know the test result on file for CCn1cc(C(=O)O)c(=O)c2cc(F)c(N3CCNCC3)cc21 .
Output: label 0
